Origin of the recorded values: paper PMC4635625

Molecular target: α6β2‡ nAChR, TrpB (α6:W149) = 5-F1Trp (Rattus norvegicus, UniProt P12390+P43143, L273S/L280S/L348M/R364A/R365A/R367A/W179X)
Experiment: TEVC dose-response, nonsense suppression, 5-F1Trp at TrpB
Details: Table 4; TrpB = F1Trp
measured quantity: pEC50
Lab note — pEC50 values are minus log10 of concentrations in M.

Quick one: pEC50 for C1=C(/c2cncnc2)CCCNCC/1 ? 6.66

----------
Can you tell me nH for the items I'm about to list?
Biological target: α6L9′Sβ2L9′SLFM/AAQA (α6β2‡) nAChR (Rattus norvegicus, UniProt P12390+P43143, L273S/L280S/L348M/R364A/R365A/R367A)
Sequence (P43143 31-493 L280S): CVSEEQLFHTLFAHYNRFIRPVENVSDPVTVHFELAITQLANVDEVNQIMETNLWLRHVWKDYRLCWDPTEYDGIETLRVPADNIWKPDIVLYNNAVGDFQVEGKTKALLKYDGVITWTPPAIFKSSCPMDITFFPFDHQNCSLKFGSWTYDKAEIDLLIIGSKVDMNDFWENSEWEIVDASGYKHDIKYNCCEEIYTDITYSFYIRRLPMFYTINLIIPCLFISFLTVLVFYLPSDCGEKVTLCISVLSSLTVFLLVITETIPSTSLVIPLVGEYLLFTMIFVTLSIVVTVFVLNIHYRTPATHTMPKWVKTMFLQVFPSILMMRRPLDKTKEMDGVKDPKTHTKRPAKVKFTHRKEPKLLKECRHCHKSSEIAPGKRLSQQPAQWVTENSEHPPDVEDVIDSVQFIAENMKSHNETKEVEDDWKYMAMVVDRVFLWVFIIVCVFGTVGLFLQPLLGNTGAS
Sequence (P12390 25-500 L273S/L348M/R364A/R365A/R367A): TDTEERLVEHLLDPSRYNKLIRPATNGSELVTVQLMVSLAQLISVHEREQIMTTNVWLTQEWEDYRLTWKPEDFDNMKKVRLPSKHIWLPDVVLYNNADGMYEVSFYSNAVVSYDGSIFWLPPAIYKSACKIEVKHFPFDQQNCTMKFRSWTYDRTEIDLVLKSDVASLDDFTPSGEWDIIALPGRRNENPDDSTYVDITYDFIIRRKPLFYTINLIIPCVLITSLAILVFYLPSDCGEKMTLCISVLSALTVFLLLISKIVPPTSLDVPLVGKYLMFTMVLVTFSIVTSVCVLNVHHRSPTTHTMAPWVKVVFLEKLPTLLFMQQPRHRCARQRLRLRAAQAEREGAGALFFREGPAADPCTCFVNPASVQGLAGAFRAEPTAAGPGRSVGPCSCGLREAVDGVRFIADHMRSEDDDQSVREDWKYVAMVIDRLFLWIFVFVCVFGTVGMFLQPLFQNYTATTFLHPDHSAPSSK
Experiment: cell-based
Type: cell-based
Conditions: agonist panel, α6-biased population; Hill coefficient
Simply state the number, no unit and no words.

Quick one: nH for C1=C(/c2cncnc2)CCCNCC/1 ? 0.99

Quick one: nH for Clc1ccc(C2CC3CCC2N3)cn1 (racemic) [Epi, (±)-epibatidine] ? 1.9

Quick one: nH for CC(=O)OCC[N+](C)(C)C [ACh, Acetylcholine chloride] ? 1.36

Quick one: nH for C[N+](C)(C)CCOC(N)=O.[Cl-] [CCh, carbamylcholine chloride] ? 1.12

Quick one: nH for c1cnc2cc3c(cc2n1)[C@@H]1CNC[C@H]3C1 ? 1.08

----------
Can you tell me EC50 for the items I'm about to list?
Target: α6L9′Sβ2L9′SLFM/AAQA (α6β2‡) nAChR (Rattus norvegicus, UniProt P12390+P43143, L273S/L280S/L348M/R364A/R365A/R367A)
Test: cell-based
Assay type: cell-based
Details: EC50

Quick one: EC50 for C[N+](C)(C)CCO [Ch, choline chloride] ? 159 µM

Quick one: EC50 for O=c1cccc2n1C[C@@H]1CNC[C@H]2C1 [Cyt, cytisine] ? 0.027 µM

----------
Molecular target: α6L9′Sβ2L9′SLFM/AAQA (α6β2‡) nAChR (Rattus norvegicus, UniProt P12390+P43143, L273S/L280S/L348M/R364A/R365A/R367A)
Test: cell-based
Format: cell-based
Details: agonist panel, α6-biased population; range of maximum currents
measured quantity: Imax

Quick one: Imax for C[N+](C)(C)CCOC(N)=O.[Cl-] [CCh, carbamylcholine chloride] ? 3.63–52.5 µA

Quick one: Imax for Clc1ccc(C2CC3CCC2N3)cn1 (racemic) [Epi, (±)-epibatidine] ? 0.47–2.81 µA

Quick one: Imax for C1=C(/c2cncnc2)CCCNCC/1 [TC299] ? 1.73–21.9 µA

Quick one: Imax for c1cnc2cc3c(cc2n1)[C@@H]1CNC[C@H]3C1 [Var, varenicline] ? 0.51–12.1 µA

Quick one: Imax for CC(=O)OCC[N+](C)(C)C [ACh, Acetylcholine chloride] ? 0.28–14.9 µA

----------
Target: α6L9′Sβ2L9′SLFM/AAQA (α6β2‡) nAChR (Rattus norvegicus, UniProt P12390+P43143, L273S/L280S/L348M/R364A/R365A/R367A)
Assay: cell-based
Assay type: cell-based
Conditions: agonist panel, α6-biased population, holding potential −60 mV
measured quantity: pEC50
Lab note — pEC50 values are minus log10 of concentrations in M.

Quick one: pEC50 for C1=C(/c2cncnc2)CCCNCC/1 [TC299] ? 7.15

Quick one: pEC50 for C[N+](C)(C)CCOC(N)=O.[Cl-] [CCh, carbamylcholine chloride] ? 5.87
